Ref: ChEMBL document CHEMBL1649134

Attribute: MIC
# Tested on: Klebsiella aerogenes
# Assay Remarks: Antimicrobial activity against multidrug resistant Enterobacter aerogenes isolate 7 by broth dilution method
# Type: functional
Numbers only; they are read as µg/mL.

// worked examples, MIC included
[
  {
    "Compound": "C[C@@H](O)[C@H]1C(=O)N2C(C(=O)O)=C(SCCNC=N)C[C@H]12 [IMIPENEM ANHYDROUS]",
    "MIC (µg/mL)": 2
  },
  {
    "Compound": "CCn1cc(C(=O)O)c(=O)c2cc(F)c(N3CCNCC3)cc21 [NORFLOXACIN]",
    "MIC (µg/mL)": 256
  },
  {
    "Compound": "C[C@@H]1CN(c2c(F)c(N)c3c(=O)c(C(=O)O)cn(C4CC4)c3c2F)C[C@H](C)N1 [SPARFLOXACIN]",
    "MIC (µg/mL)": 128
  },
  {
    "Compound": "CO/N=C(\\C(=O)N[C@@H]1C(=O)N2C(C(=O)[O-])=C(C[N+]3(C)CCCC3)CS[C@H]12)c1csc(N)n1",
    "MIC (µg/mL)": 64
  }
]

# MIC (compound: CN(C)[C@@H]1C(O)=C(C(N)=O)C(=O)[C@@]2(O)C(O)=C3C(=O)c4c(O)cccc4[C@@](C)(O)[C@H]3C[C@@H]12 [TETRACYCLINE] ) is 128

# MIC (compound: O=C(N[C@H](CO)[C@H](O)c1ccc([N+](=O)[O-])cc1)C(Cl)Cl [CHLORAMPHENICOL] ) is 1020

###

# Tested on: Klebsiella aerogenes
# Assay Remarks: Antimicrobial activity against multidrug resistant Enterobacter aerogenes isolate 12 by broth dilution method
# Assay type: functional
Endpoint Label: MIC (µg/mL)
Numbers only; they are read as µg/mL.

// worked examples, MIC included
[
  {
    "Compound": "CN(C)[C@@H]1C(O)=C(C(N)=O)C(=O)[C@@]2(O)C(O)=C3C(=O)c4c(O)cccc4[C@@](C)(O)[C@H]3C[C@@H]12 [TETRACYCLINE]",
    "MIC (µg/mL)": 128
  },
  {
    "Compound": "O=C(N[C@H](CO)[C@H](O)c1ccc([N+](=O)[O-])cc1)C(Cl)Cl [CHLORAMPHENICOL]",
    "MIC (µg/mL)": 1020
  },
  {
    "Compound": "CO/N=C(\\C(=O)N[C@@H]1C(=O)N2C(C(=O)[O-])=C(C[N+]3(C)CCCC3)CS[C@H]12)c1csc(N)n1",
    "MIC (µg/mL)": 128
  },
  {
    "Compound": "CCn1cc(C(=O)O)c(=O)c2cc(F)c(N3CCNCC3)cc21 [NORFLOXACIN]",
    "MIC (µg/mL)": 512
  },
  {
    "Compound": "C[C@@H](O)[C@H]1C(=O)N2C(C(=O)O)=C(SCCNC=N)C[C@H]12 [IMIPENEM ANHYDROUS]",
    "MIC (µg/mL)": 1
  }
]

# MIC (compound: C[C@@H]1CN(c2c(F)c(N)c3c(=O)c(C(=O)O)cn(C4CC4)c3c2F)C[C@H](C)N1 [SPARFLOXACIN] ) is 128

###

# System: Klebsiella pneumoniae
# Assay Remarks: Antimicrobial activity against multidrug resistant Klebsiella pneumoniae isolate 15 by broth dilution method
# Type: functional
Attribute: MIC
Numbers only; they are read as µg/mL.

// worked examples, MIC included
[
  {
    "Compound": "CCn1cc(C(=O)O)c(=O)c2cc(F)c(N3CCNCC3)cc21 [NORFLOXACIN]",
    "System Tested": "Klebsiella pneumoniae",
    "MIC (µg/mL)": 256
  },
  {
    "Compound": "C[C@@H](O)[C@H]1C(=O)N2C(C(=O)O)=C(SCCNC=N)C[C@H]12 [IMIPENEM ANHYDROUS]",
    "System Tested": "Klebsiella pneumoniae",
    "MIC (µg/mL)": 1
  },
  {
    "Compound": "CO/N=C(\\C(=O)N[C@@H]1C(=O)N2C(C(=O)[O-])=C(C[N+]3(C)CCCC3)CS[C@H]12)c1csc(N)n1",
    "System Tested": "Klebsiella pneumoniae",
    "MIC (µg/mL)": 32
  },
  {
    "Compound": "C[C@@H]1CN(c2c(F)c(N)c3c(=O)c(C(=O)O)cn(C4CC4)c3c2F)C[C@H](C)N1 [SPARFLOXACIN]",
    "System Tested": "Klebsiella pneumoniae",
    "MIC (µg/mL)": 32
  },
  {
    "Compound": "O=C(N[C@H](CO)[C@H](O)c1ccc([N+](=O)[O-])cc1)C(Cl)Cl [CHLORAMPHENICOL]",
    "System Tested": "Klebsiella pneumoniae",
    "MIC (µg/mL)": 8
  },
  {
    "Compound": "CN(C)[C@@H]1C(O)=C(C(N)=O)C(=O)[C@@]2(O)C(O)=C3C(=O)c4c(O)cccc4[C@@](C)(O)[C@H]3C[C@@H]12 [TETRACYCLINE]",
    "System Tested": "Klebsiella pneumoniae",
    "MIC (µg/mL)": 2
  }
]

# MIC (compound: CO[C@@]1(NC(=O)Cc2cccs2)C(=O)N2C(C(=O)O)=C(COC(N)=O)CS[C@@H]21 [CEFOXITIN] ) is 64
